- Target System: Pfu-Pol D (family-D DNA polymerase, DP1 small + DP2 large subunits) (Pyrococcus furiosus, UniProt P81409;P81412 1-1263;1-613)
- Sequence (P81409 whole entry, chain 1 of 2): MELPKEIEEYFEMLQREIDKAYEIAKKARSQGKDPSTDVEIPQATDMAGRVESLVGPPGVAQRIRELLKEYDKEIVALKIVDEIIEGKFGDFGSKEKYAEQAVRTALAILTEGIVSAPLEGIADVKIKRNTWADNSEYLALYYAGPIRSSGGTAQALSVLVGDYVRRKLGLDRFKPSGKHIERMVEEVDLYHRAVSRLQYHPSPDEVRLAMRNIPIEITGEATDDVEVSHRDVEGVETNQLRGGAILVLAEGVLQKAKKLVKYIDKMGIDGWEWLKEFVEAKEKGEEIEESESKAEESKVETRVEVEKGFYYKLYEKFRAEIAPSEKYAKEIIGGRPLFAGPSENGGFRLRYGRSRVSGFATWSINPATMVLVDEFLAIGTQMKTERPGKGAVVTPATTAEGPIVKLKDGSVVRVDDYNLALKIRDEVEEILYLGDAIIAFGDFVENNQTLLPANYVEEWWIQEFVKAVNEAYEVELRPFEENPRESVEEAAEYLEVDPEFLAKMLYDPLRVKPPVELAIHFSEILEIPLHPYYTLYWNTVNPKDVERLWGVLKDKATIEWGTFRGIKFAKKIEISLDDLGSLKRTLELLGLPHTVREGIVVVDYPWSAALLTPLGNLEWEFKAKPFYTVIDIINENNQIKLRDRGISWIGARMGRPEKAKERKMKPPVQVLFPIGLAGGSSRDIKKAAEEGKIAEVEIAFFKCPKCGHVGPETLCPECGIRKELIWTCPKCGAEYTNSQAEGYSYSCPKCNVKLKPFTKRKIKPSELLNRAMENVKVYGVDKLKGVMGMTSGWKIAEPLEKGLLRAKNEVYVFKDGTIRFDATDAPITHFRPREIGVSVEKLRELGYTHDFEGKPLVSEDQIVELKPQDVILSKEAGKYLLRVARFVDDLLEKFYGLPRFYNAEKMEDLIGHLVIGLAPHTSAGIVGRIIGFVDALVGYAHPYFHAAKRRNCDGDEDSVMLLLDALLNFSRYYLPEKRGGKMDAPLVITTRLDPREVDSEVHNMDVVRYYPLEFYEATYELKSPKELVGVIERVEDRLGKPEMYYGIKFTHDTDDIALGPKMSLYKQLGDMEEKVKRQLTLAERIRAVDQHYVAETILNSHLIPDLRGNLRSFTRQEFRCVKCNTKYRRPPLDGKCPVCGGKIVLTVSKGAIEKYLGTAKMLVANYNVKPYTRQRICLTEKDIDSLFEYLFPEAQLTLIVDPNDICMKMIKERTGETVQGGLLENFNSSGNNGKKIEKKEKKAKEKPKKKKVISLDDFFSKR
- Sequence (P81412 whole entry, chain 2 of 2): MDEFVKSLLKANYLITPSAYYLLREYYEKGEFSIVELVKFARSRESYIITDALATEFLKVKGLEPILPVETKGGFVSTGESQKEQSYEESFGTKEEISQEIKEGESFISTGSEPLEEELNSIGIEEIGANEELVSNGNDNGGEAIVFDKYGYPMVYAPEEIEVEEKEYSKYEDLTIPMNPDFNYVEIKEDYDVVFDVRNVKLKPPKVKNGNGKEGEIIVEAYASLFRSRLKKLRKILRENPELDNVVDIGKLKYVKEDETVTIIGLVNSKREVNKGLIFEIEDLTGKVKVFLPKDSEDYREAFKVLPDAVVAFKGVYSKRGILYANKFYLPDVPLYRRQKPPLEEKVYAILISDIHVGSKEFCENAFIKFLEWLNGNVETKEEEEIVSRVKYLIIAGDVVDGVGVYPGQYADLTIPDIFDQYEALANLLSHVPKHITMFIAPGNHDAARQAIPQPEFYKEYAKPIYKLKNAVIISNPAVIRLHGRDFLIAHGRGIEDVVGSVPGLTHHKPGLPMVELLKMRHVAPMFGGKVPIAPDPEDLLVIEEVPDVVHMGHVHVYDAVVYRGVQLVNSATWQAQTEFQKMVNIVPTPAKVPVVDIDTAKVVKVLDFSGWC
- Test Name: fluorescence anisotropy
Recorded Kd for the following binders
Reported Property: Kd (nM)

{"Binder": "primer-template +1, X=U (dsDNA, deoxyuridine at template position 9) DNA 1: TTTCTGGTUCCAGCTGGACCATTCGCCTATAGGACCTATT DNA 2: AATAGGTCCTATAGGCGAATGGTCCAGCTGG", "Numeric Value": 5.8}
{"Binder": "primer-template -1, X=T (dsDNA) DNA 1: TTTCTGGTTCCAGCTGGACCATTCGCCTATAGGACCTATT DNA 2: AATAGGTCCTATAGGCGAATGGTCCAGCTGGAA", "Numeric Value": 9.3}
{"Binder": "TTTCTGGTTCCAGCTGGACCATTCGCCTATAGGACCTATT (ssDNA) [single strand, X=T]", "Numeric Value": 6}

Where do these numbers come from? They come from paper PMC3627576.
